Value source: ChEMBL document CHEMBL4393657

# Tested on: Aspergillus niger
# Assay Explanation: Antifungal activity against Aspergillus niger assessed as reduction in fungal cell growth incubated for 72 hrs by broth microdilution method
# Assay type: functional
Examples of compounds with documented MIC follow.

Reference set, count: 3
1) CCC(C)n1ncn(-c2ccc(N3CCN(c4ccc(OCC5COC(Cn6cncn6)(c6ccc(Cl)cc6Cl)O5)cc4)CC3)cc2)c1=O (stereo unspecified) [ITRACONAZOLE]: 0.007 to 0.5 µg/mL
2) C[C@@H](c1ncncc1F)[C@](O)(Cn1cncn1)c1ccc(F)cc1F [VORICONAZOLE]: 0.015 to 0.5 µg/mL
3) C[C@H](n1nnc(CCN2CCN(c3c(Cl)cccc3Cl)CC2)n1)[C@](O)(Cn1cncn1)c1ccc(F)cc1F: 0.25 to 16 µg/mL

Return MIC (reported value) for this compound: C[C@H](n1nnnc1CCN1CCN(c2ccc([N+](=O)[O-])cc2)CC1)[C@](O)(Cn1cncn1)c1ccc(F)cc1F 0.12 to 16 µg/mL

Return MIC (reported value) for this compound: CC(n1nnc(CCN2CCN(Cc3ccccc3)CC2)n1)C(O)(Cn1cncn1)c1ccc(F)cc1F (stereo unspecified) 1 to 16 µg/mL

Return MIC (reported value) for this compound: COc1ccc(N2CCN(CCc3nnn(CC(O)(Cn4cncn4)c4ccc(F)cc4F)n3)CC2)cc1 (stereo unspecified) 1 to 16 µg/mL

Return MIC (reported value) for this compound: CC(n1nnnc1CCN1CCN(c2c(Cl)cccc2Cl)CC1)C(O)(Cn1cncn1)c1ccc(F)cc1F (stereo unspecified) 0.5 to 16 µg/mL

Return MIC (reported value) for this compound: CC(n1nnnc1CCN1CCN(c2ccccc2)CC1)C(O)(Cn1cncn1)c1ccc(F)cc1F (stereo unspecified) 0.5 to 16 µg/mL

Return MIC (reported value) for this compound: C[C@H](n1nnnc1CCN1CCN(c2ccc(Cl)cc2)CC1)[C@](O)(Cn1cncn1)c1ccc(F)cc1F 0.12 to 16 µg/mL

Return MIC (reported value) for this compound: CC(n1nnnc1CCN1CCN(Cc2ccccc2)CC1)C(O)(Cn1cncn1)c1ccc(F)cc1F (stereo unspecified) 0.5 to 16 µg/mL

Return MIC (reported value) for this compound: OC(Cn1cncn1)(Cn1nnnc1CCN1CCN(C(c2ccccc2)c2ccccc2)CC1)c1ccc(F)cc1F (stereo unspecified) 0.5 to 16 µg/mL

Return MIC (reported value) for this compound: OC(Cn1cncn1)(Cn1nnc(CCN2CCN(c3ccc(F)cc3)CC2)n1)c1ccc(F)cc1F (stereo unspecified) 1 to 16 µg/mL

Return MIC (reported value) for this compound: CCCCOc1ccccc1N1CCN(CCc2nnnn2C(C)C(O)(Cn2cncn2)c2ccc(F)cc2F)CC1 (stereo unspecified) 0.5 to 16 µg/mL

Return MIC (reported value) for this compound: CC(n1nnc(CCN2CCN(c3cccc(Cl)c3)CC2)n1)C(O)(Cn1cncn1)c1ccc(F)cc1F (stereo unspecified) 1 to 16 µg/mL

Return MIC (reported value) for this compound: O=[N+]([O-])c1ccc(N2CCN(CCc3nnn(CC(O)(Cn4cncn4)c4ccc(F)cc4F)n3)CC2)cc1 (stereo unspecified) 1 to 16 µg/mL

Return MIC (reported value) for this compound: CC(n1nnnc1CCN1CCN(c2ccc([N+](=O)[O-])cc2)CC1)C(O)(Cn1cncn1)c1ccc(F)cc1F (stereo unspecified) 0.5 to 16 µg/mL
